Origin of values: patent US20190367619A1

Molecular target: T1, human galectin-10-His (recombinant human galectin-10 with TEV-cleavable N-terminal His-tag) (human)
T1 construct: SEC-MALLS: dimer in solution; also called Gal10-His; humanGal10-His
T1 chain: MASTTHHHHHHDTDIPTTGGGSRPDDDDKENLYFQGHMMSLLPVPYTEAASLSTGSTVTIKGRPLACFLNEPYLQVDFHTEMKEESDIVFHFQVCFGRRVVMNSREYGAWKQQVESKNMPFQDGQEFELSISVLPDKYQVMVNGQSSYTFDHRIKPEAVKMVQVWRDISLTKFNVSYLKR
Assay: BLI tandem on galectin-10-His; competitor: saturating 6E10 mIgG1 (10 ug/mL)
Measured binding signal (nm) of individual entries

Measured binding signal (nm) of 6A05 mouse IgG1 (antibody, V domains shown, also called 6A05 mIgG1) VH: EVQLVESGGGLVQPGGSLRLSCAASGFTFSSYAMSWVRQAPGKGLEWVSAINSGGGWTSYVDSVKGRFTISRDNAKNTLYLQMDSLKPEDTAVYYCTKYSGPELNTQYGMDYWGKGTLVTVSS VL: NFMLTQPSAVSVSLGQTARITCQGGNFGSYYASWYQQKPGQAPVLVIYRDSGRPSGIPERFSGSSSGDTATLTISGAQAEDEADYYCQSGSSSDNTVFGGGTHLTVL : -0.03 nm

Measured binding signal (nm) of 1D11 mouse IgG1 (antibody, V domains shown, VH on mouse IgG1 heavy chain constant domains (CH1-CH2-CH3), VL on mouse lambda light chain constant domain; also called 1D011; 1D11 mIgG1) VH: QVQLVESGGGLVQPGGSLRLSCAASGFTFDDYAMSWVRQAPGKGLEWVSGISWNGGSTYYAESMKGRFTISRDNAKNTLYLQMNSLKSEDTAVYYCAKDRNLGYRLGYPYDYWGQGTQVTVSS VL: QSVLTQPPSVSGSPGETVTISCAGTSSDVGYGNYVSWYQQLPGMAPRLLIYEVNKRASGITDRFSGSKSGNTASLTISGLQSEDEGDYYCASYRSSNNAVFGGGTHLTVL : -0.01 nm

Measured binding signal (nm) of 6F06 mouse IgG1 (antibody, V domains shown, also called 6F06 mIgG1) VH: QVQLVESGGGLVQPGGSLRLSCAASEFTFSRYSMSWVRQAPGKGLEWVSTINSGGGSTSYVDSVKGRFTISRDNAKNTLYLQMNSLKPEDTAVYYCTKSQGGISFSTQYGMDYWGKGTLVTVSS VL: NFMLTQPSAVSVSLGQTARITCQGGNFGRYYANWYQQKPGQAPVLVIYKDSERPSGIPERFSGSSSGDTATLTISGAQAEDESDYYCQSGSVSDNAVFGGGTHLAVL : -0.03 nm

Measured binding signal (nm) of 6A08 mouse IgG1 (antibody, V domains shown, also called 6A08 mIgG1) VH: QVQLVESGGGLVQPGGSLRLSCAASGFTFSSYAMSWVRQAPGKGPEWVSAINRGGGSTYYADSVKGRFTISRDNAKNTLYLQMNSLKPEDAAVYYCATPGDRLWYYRYDYWGQGAQVTVSS VL: QTVVTQEPSLSVSPGGTVTLTCGLSSGSVTSSNYPGWYQQTPGQAPRLLIYNTNSRYSGVPNRFSGSISGNKAALIISGAQPEDEADYHCALNRVRGTYRVFGGGTHLTVL : -0.05 nm

Measured binding signal (nm) of 4E08 mouse IgG1 (antibody, V domains shown, VH on mouse IgG1 heavy chain constant domains (CH1-CH2-CH3), VL on mouse lambda light chain constant domain; also called 4E8; 4E08 mIgG1) VH: QVQRQESGPGLVKPSQTLSLTCTVSGGSITTSYYAWSWIRQPPGKGLEWMGVIASDGSTYYSPSLKSRTSISRDTSKNQFSLQLSSVTPEDTAVYYCALYIRGSSWSGWSAYDYWGQGTQVTVSS VL: QPVLNQPSAVSVSLGQTARITCQGGNFGYYYGSWYQQKPGQAPVLVIYKDSERPSGIPERFSGSSSGGTATLTISRAQAEDEADYYCQSADSSDNPVFGGGTHLTVL : -0.05 nm

Measured binding signal (nm) of 6B06 mouse IgG1 (antibody, V domains shown, also called 6B06 mIgG1) VH: QVQRQESGPGLVKPSQTLSLTCTVSGGSITTNYYSWSWIRQPPGKGLEWIGYIAYSGSTSYSPSLKSRTSISRDTSNNQFSLQLSSVTPEDTAVYYCARSRSSPTTFGMDYWGKGTLVTVSS VL: SSALTQPSAVSVSLGQTARITCQGGNFGRYYVSWYTQKPGQAPVLVIYQDSERPTGIPERFSGSSSGDTATLTISGAQAEDEADYYCQSGTSSDNIVFGGGTHLTVL : -0.02 nm

Measured binding signal (nm) of 6E10 mouse IgG1 (antibody, V domains shown, also called 6E010; 6E10 mIgG1) VH: QLQLVESGGGLVQPGGSLRLSCAASGFTFSSYWMYWVRQAPGKGLEWVSAINTGGGSTYYADSVKGRFTISRDNAKNTLYLQMNSLKPEDTALYYCARAGSGVAGTGYDYWGQGTQVTVSS VL: QPVLNQPSAVSVSLGQTARITCQGGNFGYYYVSWYQQKPGQAPVLVIYRDSGRPSGIPERFSGSSSGDTATLTISGAQAEDEADYYCQSGSSSDNAVFGGGTHLTVL : 0 nm

Measured binding signal (nm) of 1C09 mouse IgG1 (antibody, V domains shown, VH on mouse IgG1 heavy chain constant domains (CH1-CH2-CH3), VL on mouse lambda light chain constant domain; also called 1C09 mIgG1) VH: QVQLVESGPGLVKPSQTLSLTCTVSGGSITTNSYYWSWIRQPPGKGLEWMGAIAYSGSTYYSPSLKSRTSISRDTSKNQFTLHLSSVTPEDTAVYYCARRPNWYRALDAWGQGTLVTVSS VL: NFMLTQPSAVSVSLGQTARITCQGANLGRYYGIWYQQKPGQAPVQVIYGDSNRPSGIPERFSGSSSGGTATLTISGAQAEDEADYYCQSYESSTSPVFGGGTHLTVL : 0.02 nm

Measured binding signal (nm) of 2C07 mouse IgG1 (antibody, V domains shown, VH on mouse IgG1 heavy chain constant domains (CH1-CH2-CH3), VL on mouse lambda light chain constant domain; also called 2C07 mIgG1) VH: ELQLVESGGGLVQPGGSLRLSCAASGFTFSSYAMSWVRQAPGKGLEWVSNINSGGGSTGYADSVKGRFTISRDNAKNTLYLQMNSLKPEDMAVYYCAKYLRTYYPNAAFGMDYWGKGTLVTVSS VL: QAVLTQPSAVSVSLGQTARITCQGGNFGRYYASWYQQKPGQAPVLVIYRDSERPSGIPERFSGSSSGDTATLTISGAQAEDEADYYCQSGRSSDNAVFGGGTHLTGL : -0.04 nm

Shifting focus to the binder that follows.
Measured binding signal (nm) of 2F09 mouse IgG1 (antibody, V domains shown, VH on mouse IgG1 heavy chain constant domains (CH1-CH2-CH3), VL on mouse lambda light chain constant domain; also called 2F09 mIgG1) VH: QVQVQESGPGLVKPSQTLSLTCTVSGGSITTNYFYWSWIRQSPGKGLEWIGAIAYSGRTYYSPSLKSRTSISRDTSNNQFTLQLSSVTPEDTAVYYCARGPKGLASYYDYWGQGTQVTVSS VL: SSALTQPSAVSVSLGQTARITCQGGNFGYYYVSWYQQKPGQAPVLVIYRDSGRPSGIPERFSGSSSGDTATLTISGAQAEDEADYYCQSGSSSDNTVFGGGTHLTVL : 0.03 nm
